Below: a set of entries, each annotated with reported self-cleavage.
B1: Osa-1-4 twister ribozyme (parent)
chain: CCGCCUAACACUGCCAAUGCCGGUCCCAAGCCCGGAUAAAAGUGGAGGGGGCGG

Variants of: B1
Assay: self-cleavage, relative activity (ratio to wild type); higher = more cleavage; co-transcriptional
Answer as a number with no unit attached.

Consider the worked cases shown below.
CCGCCUAACACUGCCAAUGCCGGUCCCAAGCCCGGAUAAAAGUGGAGGGUGCGU [G50U G54U] : 0.52
CCGCCUAACACUGCCAAUGCCGGUACCAAGCCCGGAUAAAAGUGUAGGGGGCGG [C25A G45U] : 0.03
CCGCCUAACACUGCCAAUGCCGGUCCCAAGCCCGGAUACAAGUGGAGGGGACGG [A39C G51A] : 0.53
CCGCCUAACACUGCCAAUGCCGGUUCCAAGCCCGGAUAAAGGUGGAGGGGGCGG [A41G C25U] : 0.16
CCGCCUAACACUGCCAAUACCGGUCCCAAGCCCGGAUAAAAGUGGAGGGAGCGG [G19A G50A] : 0.92
CCGCCUAACACUGCUAAUGCCGGUCCCAAGCCCGGAUAAAAGUGGAGGGGGCGG [C15U] : 0.53

Inquiry: # query: self-cleavage of entry CCGCCUAACACUGCCAUUGCCGGUCCCAAGCCCGGAAAAAAGUGGAGGGGGCGG [A17U U37A]
Reply text: 0.73

Inquiry: Would you mind telling me what self-cleavage value was observed for CCGCCUAACACUGCCAAUGCCGGUCCCAGGACCGGAUAAAAGUGGAGGGGGCGG [A29G C31A] ?
Reply text: 0.02

Inquiry: For CCGCCUAACACUGCCAAUGCCGGUCCCAAGCCCGGAUAAACGUGGAGGCGGCGG [A41C G49C] , what is its reported self-cleavage?
Reply text: 0.08
